# System: Escherichia coli TOP10
# Procedure summary: shrunken log2 fold change of peptide-encoding DNA abundance (4.5 h post-induction vs induction); higher = less antimicrobial activity (less host growth inhibition)
# Stated conditions: time post-induction: 4.5 h; library: site-saturation at positions 5, 18, 19, 20
Decide using shrunken log2 fold change: a value greater than or equal to 0.2 is condition met, a smaller one is condition not met.

>>> print(df.to_string())
            sequence_entry              label
0  RRIRIRPPRLPRPRPRPLLLPRP  condition not met
1  RRIRKRPPRLPRPRPRPTMAPRP      condition met
2  RRIRIRPPRLPRPRPRPLYAPRP  condition not met
3  RRIRTRPPRLPRPRPRPHHHPRP  condition not met
4  RRIRGRPPRLPRPRPRPLMSPRP      condition met
5  RRIRTRPPRLPRPRPRPCGLPRP  condition not met
6  RRIRARPPRLPRPRPRPGKPPRP  condition not met

Next sequence, please.
QUERY: Is reported shrunken log2 fold change greater than or equal to 0.2 here: RRIRLRPPRLPRPRPRPAFFPRP
RESULT: condition met

----------
# Tested on: Escherichia coli TOP10
# Procedure summary: shrunken log2 fold change of peptide-encoding DNA abundance (4.5 h post-induction vs induction); higher = less antimicrobial activity (less host growth inhibition)
# Stated conditions: time post-induction: 4.5 h; library: site-saturation at positions 5, 18, 19, 20
Readout type: shrunken log2 fold change
One number for each entry.

In [3]: df
Out[3]:
            sequence_entry               readout_type  measured_value
0  RRIRIRPPRLPRPRPRPGPTPRP  shrunken log2 fold change           0.175

For the 7 sequences below, give their shrunken log2 fold change values.
1. RRIRMRPPRLPRPRPRPNASPRP
2. RRIRTRPPRLPRPRPRPDTYPRP
3. RRIRPRPPRLPRPRPRPLIAPRP
4. RRIRGRPPRLPRPRPRPKFRPRP
5. RRIRFRPPRLPRPRPRPTQAPRP
6. RRIRFRPPRLPRPRPRPPIPPRP
7. RRIRKRPPRLPRPRPRPEYLPRP

RESULT:
1: 0.0546; 2: -0.202; 3: 0.113; 4: 0.112; 5: 0.442; 6: 0.257; 7: -0.0659

For the 2 sequences below, give their shrunken log2 fold change values.
1. RRIRVRPPRLPRPRPRPQMCPRP
2. RRIRPRPPRLPRPRPRPLYIPRP

RESULT:
1. 0.00424
2. -0.227

For the 4 sequences below, give their shrunken log2 fold change values.
1. RRIRHRPPRLPRPRPRPMDGPRP
2. RRIRIRPPRLPRPRPRPICFPRP
3. RRIRCRPPRLPRPRPRPVSEPRP
4. RRIRWRPPRLPRPRPRPAHMPRP

RESULT:
1. -0.0367
2. -0.152
3. 0.00852
4. 0.0152

For the 2 sequences below, give their shrunken log2 fold change values.
1. RRIRERPPRLPRPRPRPCATPRP
2. RRIRLRPPRLPRPRPRPKKYPRP

RESULT:
1. 0.0398
2. -0.143

----------
# Test system: Escherichia coli TOP10
# Procedure summary: shrunken log2 fold change of peptide-encoding DNA abundance (4.5 h post-induction vs induction); higher = less antimicrobial activity (less host growth inhibition)
# Stated conditions: time post-induction: 4.5 h; library: site-saturation at positions 5, 18, 19, 20
Provide the reported shrunken log2 fold change of each item.
One number for each entry.

>>> df
            sequence_entry  measured_value
0  RRIRNRPPRLPRPRPRPEMHPRP           0.191
1  RRIRMRPPRLPRPRPRPYYYPRP          -0.304
2  RRIRERPPRLPRPRPRPIEGPRP          0.0039

For the 6 sequences below, give their shrunken log2 fold change values.
1. RRIRKRPPRLPRPRPRPQFCPRP
2. RRIRKRPPRLPRPRPRPCFPPRP
3. RRIRARPPRLPRPRPRPPKKPRP
4. RRIRERPPRLPRPRPRPKSAPRP
5. RRIRYRPPRLPRPRPRPGEYPRP
6. RRIRMRPPRLPRPRPRPQDYPRP

RESULT:
0.0712
0.123
0.342
0.116
-0.0574
-0.0945

For the 2 sequences below, give their shrunken log2 fold change values.
1. RRIRERPPRLPRPRPRPFELPRP
2. RRIRPRPPRLPRPRPRPVFWPRP

RESULT:
1. -0.0731
2. 0.546

----------
# Tested on: Escherichia coli TOP10
# Procedure summary: shrunken log2 fold change of peptide-encoding DNA abundance (4.5 h post-induction vs induction); higher = less antimicrobial activity (less host growth inhibition)
# Stated conditions: time post-induction: 4.5 h; library: site-saturation at positions 5, 18, 19, 20
Provide the reported shrunken log2 fold change of each item.

Example entries and their recorded answers appear below.
>>> df
            sequence_entry  measured_value
0  RRIRSRPPRLPRPRPRPIVAPRP          0.0103
1  RRIRNRPPRLPRPRPRPDPVPRP          -0.137
2  RRIRRRPPRLPRPRPRPCEMPRP            0.36
3  RRIRIRPPRLPRPRPRPCQWPRP          0.0525
4  RRIRMRPPRLPRPRPRPIFWPRP           0.337

For the 3 sequences below, give their shrunken log2 fold change values.
1. RRIRNRPPRLPRPRPRPEEEPRP
2. RRIRRRPPRLPRPRPRPKNVPRP
3. RRIRLRPPRLPRPRPRPWNGPRP

RESULT:
[-0.00134, -0.00431, -0.217]

For the 6 sequences below, give their shrunken log2 fold change values.
1. RRIRLRPPRLPRPRPRPKWPPRP
2. RRIRCRPPRLPRPRPRPFGKPRP
3. RRIRPRPPRLPRPRPRPWMAPRP
4. RRIRKRPPRLPRPRPRPGCLPRP
5. RRIRQRPPRLPRPRPRPIAKPRP
6. RRIRCRPPRLPRPRPRPHQTPRP

RESULT:
1. 0.279
2. -0.0592
3. -0.113
4. 0.646
5. -0.00229
6. -0.0284

----------
# System: Escherichia coli TOP10
# Procedure summary: shrunken log2 fold change of peptide-encoding DNA abundance (4.5 h post-induction vs induction); higher = less antimicrobial activity (less host growth inhibition)
# Stated conditions: time post-induction: 4.5 h; library: site-saturation at positions 5, 18, 19, 20
Decide using shrunken log2 fold change: a value greater than or equal to 0.03 is T, a smaller one is F.

In [3]: df
Out[3]:
            sequence_entry  label
0  RRIRGRPPRLPRPRPRPWFAPRP      T
1  RRIRTRPPRLPRPRPRPYTNPRP      F
2  RRIRARPPRLPRPRPRPCVKPRP      T
3  RRIRLRPPRLPRPRPRPQIRPRP      F
4  RRIRWRPPRLPRPRPRPRYQPRP      F

QUERY: Is reported shrunken log2 fold change greater than or equal to 0.03 here: RRIRARPPRLPRPRPRPWDDPRP
RESULT: T

QUERY: Is reported shrunken log2 fold change greater than or equal to 0.03 here: RRIRARPPRLPRPRPRPCTGPRP
RESULT: F

QUERY: Is reported shrunken log2 fold change greater than or equal to 0.03 here: RRIRNRPPRLPRPRPRPKDTPRP
RESULT: F

QUERY: Is reported shrunken log2 fold change greater than or equal to 0.03 here: RRIRMRPPRLPRPRPRPGYRPRP
RESULT: T

QUERY: Is reported shrunken log2 fold change greater than or equal to 0.03 here: RRIRTRPPRLPRPRPRPMLHPRP
RESULT: T

QUERY: Is reported shrunken log2 fold change greater than or equal to 0.03 here: RRIRSRPPRLPRPRPRPQATPRP
RESULT: F

QUERY: Is reported shrunken log2 fold change greater than or equal to 0.03 here: RRIRHRPPRLPRPRPRPCYIPRP
RESULT: F

QUERY: Is reported shrunken log2 fold change greater than or equal to 0.03 here: RRIRYRPPRLPRPRPRPRKWPRP
RESULT: T

QUERY: Is reported shrunken log2 fold change greater than or equal to 0.03 here: RRIRYRPPRLPRPRPRPLDEPRP
RESULT: T

----------
# System: Escherichia coli TOP10;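 further: peptides expressed intracellularly from a pBAD plasmid library in pooled LB shake-flask culture, induced with 0.3% L-arabinose, DNA abundance read by NGS, three biological replicates, DESeq2 with apeglm shrinkage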
# Procedure summary: shrunken log2 fold change of peptide-encoding DNA abundance (4.5 h post-induction vs induction); higher = less antimicrobial activity (less host growth inhibition)
# Stated conditions: time post-induction: 4.5 h; library: site-saturation at positions 5, 18, 19, 20
Classes by shrunken log2 fold change: low interval = under -0.09, middle interval = from -0.09 up to 0.2, high interval = 0.2 and over

These recorded examples may help you get a feel for the data.
>>> print(df.to_string())
            sequence_entry            label
0  RRIRSRPPRLPRPRPRPTIEPRP  middle interval
1  RRIRMRPPRLPRPRPRPLWLPRP    high interval

QUERY: Hi, small favor: classify RRIRARPPRLPRPRPRPHCEPRP by its shrunken log2 fold change when you get a moment.
RESULT: low interval
